QUANTITY: pIC50
// field semantics: pIC50 = negative decimal log of concentration (mol/L)

Here C[C@@H]1CCC[C@H](C)N1CCCCCN1C(=O)C(c2cc(C(=N)N)ccc2O)Cc2ccccc21 (stereo partly shown) was tested on UniProtKB P00742, and its pIC50 came to 7.70
